As shown below, each of these molecules has a reported inhibition value.
System: Escherichia coli
Experiment: Percent of inhibition of diaminopimelic acid decarboxylase at 1 mmol of amino acids, 1.05 mmol/L of labeled meso-DAP, and 32 umol/L of PLP

| molecule | inhibition / % |
| --- | --- |
| C=C(CC(N)C(=O)O)CC(N)C(=O)O (stereo in doubt; 4) | 5 |
| C/C(=C/C(N)C(=O)O)CC(N)C(=O)O (centres undefined) | 17 |
| C=C(C[C@@H](N)C(=O)O)C[C@@H](N)C(=O)O.C=C(C[C@H](N)C(=O)O)C[C@H](N)C(=O)O | 5 |
| C=C(C[C@@H](N)C(=O)O)C[C@H](N)C(=O)O | 8 |

====

Each entry below carries its reported MIC.
Tested on: Escherichia coli
Test: Minimum inhibitory concentration required for the inhibition of Escherichia coli ATCC 9637
Type: functional

| compound | system | result_unit | relational_operator | MIC |
| --- | --- | --- | --- | --- |
| C=C(CC(N)C(=O)O)CC(N)C(=O)O (stereo in doubt; 4) | Escherichia coli | µg/mL | = | 2 |
| C=C(C[C@@H](N)C(=O)O)C[C@@H](N)C(=O)O.C=C(C[C@H](N)C(=O)O)C[C@H](N)C(=O)O | Escherichia coli | µg/mL | = | 2 |
| NC(/C=C(\Cl)CC(N)C(=O)O)C(=O)O (stereo unspecified) | Escherichia coli | µg/mL | > | 128 |
| C=C(C[C@@H](N)C(=O)O)C[C@H](N)C(=O)O | Escherichia coli | µg/mL | = | 2 |
| C=C(CC(N)C(=O)O)CC(N)C(=O)O (stereo in doubt; (+)-4) | Escherichia coli | µg/mL | = | 6 |
| CC(N)(CCCC(N)C(=O)O)C(=O)O (stereo unspecified) | Escherichia coli | µg/mL | = | 512 |

====

Test: Minimum inhibitory concentration compared to D-cycloserine, against Moraxella glucidolytica 52.90
Type: functional

| compound | MIC |
| --- | --- |
| N[C@@H]1CONC1=O | 128 µg/mL |
| C=C(C[C@@H](N)C(=O)O)C[C@@H](N)C(=O)O.C=C(C[C@H](N)C(=O)O)C[C@H](N)C(=O)O | 8 µg/mL |
| C=C(C[C@@H](N)C(=O)O)C[C@H](N)C(=O)O | 16 µg/mL |
| C=C(CC(N)C(=O)O)CC(N)C(=O)O (stereo in doubt; 4) | 16 µg/mL |

====

Test system: Providencia alcalifaciens
Experiment: Minimum inhibitory concentration compared to D-cycloserine, against providencia alcalifaciens 58.62
Type: functional
readout_kind: MIC (µg/mL)

| molecule | observed_result |
| --- | --- |
| C=C(CC(N)C(=O)O)CC(N)C(=O)O (stereo in doubt; 4) | 128 |
| C=C(C[C@@H](N)C(=O)O)C[C@@H](N)C(=O)O.C=C(C[C@H](N)C(=O)O)C[C@H](N)C(=O)O | 32 |
| C=C(C[C@@H](N)C(=O)O)C[C@H](N)C(=O)O | 128 |
| N[C@@H]1CONC1=O [CYCLOSERINE] | 8 |

====

Overview of recorded inhibition for various compounds
Tested on: Escherichia coli
Assay: Percent of inhibition of diaminopimelic acid decarboxylase at 5 mmol of amino acids, 1.05 mmol/L of labeled meso-DAP, and 32 umol/L of PLP

| compound | system | result_unit | inhibition |
| --- | --- | --- | --- |
| C=C(CC(N)C(=O)O)CC(N)C(=O)O (stereo in doubt; 4) | Escherichia coli | % | 15 |
| C/C(=C/C(N)C(=O)O)CC(N)C(=O)O (stereo unspecified) | Escherichia coli | % | 54 |
| C=C(C[C@@H](N)C(=O)O)C[C@H](N)C(=O)O | Escherichia coli | % | 22 |
| CC(N)(CCCC(N)C(=O)O)C(=O)O (stereo unspecified) | Escherichia coli | % | 35 |
| C=C(C[C@@H](N)C(=O)O)C[C@@H](N)C(=O)O.C=C(C[C@H](N)C(=O)O)C[C@H](N)C(=O)O | Escherichia coli | % | 10 |
| C/C(=C\C(N)C(=O)O)CC(N)C(=O)O (stereo unspecified) | Escherichia coli | % | 50 |
